Molecular target: L-selectin-IgG1 Fc fusion (LS-Rg) (Homo sapiens)
Sequence: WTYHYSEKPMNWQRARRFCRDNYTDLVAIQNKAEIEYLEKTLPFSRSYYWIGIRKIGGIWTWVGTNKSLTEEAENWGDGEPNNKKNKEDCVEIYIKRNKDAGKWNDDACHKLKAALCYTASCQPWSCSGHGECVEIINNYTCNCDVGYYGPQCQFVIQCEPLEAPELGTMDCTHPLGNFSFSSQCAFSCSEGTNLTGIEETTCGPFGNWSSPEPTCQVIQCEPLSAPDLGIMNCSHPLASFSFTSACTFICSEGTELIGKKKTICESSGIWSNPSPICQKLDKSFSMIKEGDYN
Experiment: filter
Conditions: 2'-F pyrimidines, 2'-OH purines; nitrocellulose filter binding; pool plateau below 20% bound in final mixtures
Measured parameter: pKd
Please express pKd as -log10 of the molar concentration.

// fetch pKd given entry UCGGGCGGAAUUCAGGNNNNNNNNNNNNNNNNNNNNNNNNNNNNNNCCGCAUCGUCCUCCC [Flow Cell SELEX Rnd 3 pool]
9.80

###

Target: L-selectin-IgG1 Fc fusion (LS-Rg) (Homo sapiens)
Sequence: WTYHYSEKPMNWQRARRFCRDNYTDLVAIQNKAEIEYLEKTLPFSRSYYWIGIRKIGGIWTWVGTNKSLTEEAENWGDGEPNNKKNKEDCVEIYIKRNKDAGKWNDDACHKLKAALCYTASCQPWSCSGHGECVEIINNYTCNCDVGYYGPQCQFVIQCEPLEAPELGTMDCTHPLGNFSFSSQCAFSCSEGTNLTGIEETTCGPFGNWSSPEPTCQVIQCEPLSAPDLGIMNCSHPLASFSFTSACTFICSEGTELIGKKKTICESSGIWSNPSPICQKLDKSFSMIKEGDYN
Experiment: SPR
Settings: 2'-F pyrimidines, 2'-OH purines; SHMCK buffer with Ca and Mg; ka 1.7e4, kd 1.8e-3
Measured parameter: pKd
The value called pKd is obtained by taking minus log10 of the concentration in mol/L.

Give pKd for UCGGGCGGAAUUCAGGNNNNNNNNNNNNNNNNNNNNNNNNNNNNNNCCGCAUCGUCCUCCC [Flow Cell SELEX Rnd 2 pool]
6.96

###

Molecular target: L-selectin-IgG1 Fc fusion (LS-Rg) (Homo sapiens)
Sequence: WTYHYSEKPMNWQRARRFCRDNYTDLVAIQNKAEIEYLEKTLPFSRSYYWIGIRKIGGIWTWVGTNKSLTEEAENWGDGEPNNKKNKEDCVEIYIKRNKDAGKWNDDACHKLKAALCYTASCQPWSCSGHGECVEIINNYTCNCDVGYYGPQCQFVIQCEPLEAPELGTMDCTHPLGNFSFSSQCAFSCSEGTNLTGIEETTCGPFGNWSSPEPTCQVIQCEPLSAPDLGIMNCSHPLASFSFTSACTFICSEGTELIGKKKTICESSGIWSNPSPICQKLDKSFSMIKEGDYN
Experiment: SPR
Settings: 2'-F pyrimidines, 2'-OH purines; SHMCK buffer with Ca and Mg; ka 3.7e5, kd 1.5e-3
Measured parameter: Kd (nM)
# value in nM; strip the unit string

Query Kd for UCGGGCGGAAUUCAGGNNNNNNNNNNNNNNNNNNNNNNNNNNNNNNCCGCAUCGUCCUCCC [Flow Cell SELEX Rnd 5 pool]
4.1

###

Target: L-selectin-IgG1 Fc fusion (LS-Rg) (Homo sapiens) (UniProt P14151)
Sequence: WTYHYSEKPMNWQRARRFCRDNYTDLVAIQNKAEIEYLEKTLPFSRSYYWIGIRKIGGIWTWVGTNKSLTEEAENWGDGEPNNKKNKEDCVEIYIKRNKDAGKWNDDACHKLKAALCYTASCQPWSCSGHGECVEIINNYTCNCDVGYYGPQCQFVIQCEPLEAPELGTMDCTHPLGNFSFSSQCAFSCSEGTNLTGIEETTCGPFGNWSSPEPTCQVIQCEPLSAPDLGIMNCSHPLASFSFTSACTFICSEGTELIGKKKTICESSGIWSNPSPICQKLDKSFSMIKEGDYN
Assay: filter
Details: 2'-F pyrimidines, 2'-OH purines; only slightly improved over round 3 (160 pM); plateau below 20% bound
Measured parameter: Kd

Provide one value: measured Kd of UCGGGCGGAAUUCAGGNNNNNNNNNNNNNNNNNNNNNNNNNNNNNNCCGCAUCGUCCUCCC [Flow Cell SELEX Rnd 5 pool]
< 1 nM
